The measured values listed here are drawn from PubChem BioAssay.

METHOD: small molecules captured by biotinylated probe aFST – biochemical, small-molecule microarray, fluorescence 635/667, stem cell growth factor project, primary screen (AID 1086);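 further: score merges 667 nm fluorescence with signal-to-noise of each printed compound spot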
ASSAY CONTEXT: higher = more signal
ENDPOINT LABEL: composite z-score
One number for each entry.

Completed entries (count: 3):
>>> obs_value("COc1ccc([Si](C)(C)[C@H]2[C@H](CCO)O[C@@]3(C(=O)N(Cc4ccc(NC(=O)[C@H](C)O)cc4)c4ccccc43)[C@@H]2C)cc1")
0.292
>>> obs_value("C=C(CCCC)C(=O)CC[C@@H](OC(=O)c1ccccc1-c1ccccc1C(=O)O)c1ccccc1OCCO")
-0.501
>>> obs_value("Cc1ccc(S[C@]2(C(=O)NCCCN(C)C)CC(=O)N(C3Cc4ccccc4C3)[C@@H]2c2ccc(CO)cc2I)cc1")
0.404

Query: Entry `COc1ccccc1CN1C(=O)c2ccccc2[C@](Cc2ccccc2I)(C(=O)NCC(C)C)[C@@H]1c1ccc(CO)cc1` : reported composite z-score = ?
Reply: 0.0126

----------
Assignment: determine reported composite z-score for the given compounds.
METHOD: small molecules captured by biotinylated probe aFST – biochemical, small-molecule microarray, fluorescence 635/667, stem cell growth factor project, primary screen (AID 1086);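 further: score merges 667 nm fluorescence with signal-to-noise of each printed compound spot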
ASSAY CONTEXT: higher = more signal
Answers are plain numbers.

>>> obs_value("COc1cc(C(O)C2C=CC3C(=O)N(c4ccccc4)C(=O)C3N2Nc2ccccc2F)cc(OC)c1OC (configuration not stated)")
0.612
>>> obs_value("CC(=O)OCC1C2CC[C@H]3C(OCc4ccc(F)cc4C(F)(F)F)OC[C@]4(C)[C@H]3C2=C(CN4C(=O)OC(C)(C)C)[C@H](C)C1COC(C)=O (some centres not stated)")
0.579
>>> obs_value("O=C(NCc1ccc(F)cc1)[C@H]1C[C@H]2C(=O)N3CCC[C@H]3C(=O)N2[C@H]1c1ccc(O)cc1")
-0.819
>>> obs_value("O=C1C2C=CC(C(O)c3ccc([N+](=O)[O-])cc3)N(Nc3ccccc3F)C2C(=O)N1c1ccccc1 (configuration not stated)")
0.883
>>> obs_value("COCCOC(=O)N1C(=O)[C@@]2(c3cc(C#CC4(O)CCCCCC4)ccc31)[C@H](c1ccc(O)cc1)N1[C@H](c3ccccc3)[C@H](c3ccccc3)OC(=O)[C@H]1[C@@H]2C(=O)N1CCCCCCC1")
2.06

Record composite z-score per entry; entries follow.
1. CCOC(=O)C[C@H]1[C@H](OC(=O)c2ccccc2-c2ccccc2)[C@@H](NC(=O)C2CCCCC2)c2cc(OCCCO)ccc2N1C(=O)c1ccc2ccccc2n1
2. COc1cc(C(O)C2C=CC3C(=O)N(c4ccccc4)C(=O)C3N2Nc2ccccc2)cc(OC)c1OC (configuration not stated)

Reply:
1: 0.512; 2: 1.48

----------
Assignment: determine reported z-score for the given compounds.
METHOD: change in splice reporter luminescence, either direction, cell-based, HEK293, spliceosome inhibition project, primary screen (AID 1101);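 further: HEK293 cells carrying a splicing-competent luciferase reporter gene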
ASSAY CONTEXT: HEK293 splicing luciferase reporter, 24 h, higher = more signal, called active from +8 up or from −8 down
Activity calls are given as the source filed them.

>>> obs_value("CC1CC/C=C\\[C@H]2OC34C=CCN(c5ccc(Cl)cc5)C(=O)[C@H]3N(CCCCCCO)C(=O)[C@]4(C)C2C(=O)O1 (some centres undefined)")
"0.104 (inactive)"
>>> obs_value("[N-]=[N+]=Nc1ccccc1[C@@H]1OC(c2ccc(OCCCO)cc2)=N[C@]1(Cc1ccccc1)C(=O)NCCN1CCOCC1")
"-0.299 (inactive)"
>>> obs_value("CCOC(=O)C[C@H]1[C@H](OC(=O)Cc2ccc3c(c2)OCO3)[C@@H](NC(=O)c2ccc3ccccc3n2)c2cc(OCCCO)ccc2N1C(=O)Cc1ccc(OC)cc1")
"-1.8 (inactive)"

Now for a further compound.
Query: Entry `C=C(/C(=C/C[C@@H](OC(C)=O)c1cccc(OCCO)c1)c1cnc2ccccc2c1)C(C)C` : reported z-score = ?
Reply: -0.664 (inactive)

----------
Test system: XIP peptide (Xip251-270) binding
METHOD: XIP fragment 251-270 binding compounds – biochemical, small-molecule microarray, fluorescence 635/667 nm, 0.1 µg/mL protein, primary screen (AID 1182)
ASSAY CONTEXT: fluorescent protein binding, 635 nm, higher = more signal, called active from +8 up or from −8 down
Assignment: determine reported composite z-score for the given molecules.
Answers are plain numbers.

Completed entries (count: 6):
>>> obs_value("COc1ccc(C(O)C2C=CC3C(=O)N(c4ccccc4)C(=O)C3N2Nc2ccc([N+](=O)[O-])cc2)c2ccccc12 (configuration not stated)")
0.314
>>> obs_value("COc1cc(OC)c(C(O)C2C=CC3C(=O)N(c4ccccc4)C(=O)C3N2Nc2ccc(C(C)C)cc2)cc1Br (configuration not stated)")
0.242
>>> obs_value("CCCCCCc1nc(Cc2cc(OC)c(OC)c(OC)c2)cc2c1[Si](C(C)C)(C(C)C)O[C@H]2c1ccccc1")
-0.0565
>>> obs_value("COc1ccc([Si](C)(C)[C@H]2[C@H](CCO)O[C@@]3(C(=O)N(Cc4cccc(N(C=O)c5ccccc5)c4)c4ccccc43)[C@@H]2C)cc1")
0.293
>>> obs_value("[N-]=[N+]=Nc1ccccc1[C@H]1OC(c2ccc(OCCCO)cc2)=N[C@@]1(Cc1ccccc1)C(=O)NCC(O)CO (some centres not stated)")
0.448
>>> obs_value("CC[C@@H]1C=C(C(=O)O)[C@H](c2ccc(OC)cc2)N1S(=O)(=O)c1ccc(C)cc1")
1.98

Now for a further molecule.
Query: Entry `C=CCN1C(=O)[C@@]2(O[C@@H](CCn3cc([C@H](O)c4ccccc4)nn3)[C@H]([Si](C)(C)c3ccc(OC)cc3)[C@H]2C)c2cc(N3C(=O)c4cccc5cccc3c45)ccc21` : reported composite z-score = ?
Reply: 0.185

----------
TARGET SYSTEM: Carbonic anhydrase 2 (Homo sapiens)
METHOD: compounds binding carbonic anhydrase 2 – biochemical, small-molecule microarray, Alexa647-labelled CAII, profiling panel (AID 1122)
ASSAY CONTEXT: CAII-A647 binding fluorescence, higher = more signal
ENDPOINT LABEL: composite z-score
Numbers only.

>>> obs_value("CCCC#C[Si](O[C@H](CC)c1cn(Cc2ccccc2)nn1)(C(C)C)C(C)C")
0.365
>>> obs_value("C=CCOC(=O)[C@@H]1[C@H]2C(=O)O[C@H](c3ccccc3)[C@H](c3ccccc3)N2[C@H](c2ccc(OCCOC(=O)[C@H]3C[C@H]4C(=O)N5CCC[C@H]5C(=O)N4[C@H]3c3cccc(OCCO)c3)cc2)[C@@]12C(=O)Nc1ccc(I)cc12")
0.219
>>> obs_value("CC(C)=C1C(=O)C(c2ccccc2)=C2CN3C(=O)N(CCc4ccccc4)C(=O)[C@]3(C)[C@H]21")
0.373
>>> obs_value("CCCCCCc1nc(Cc2cc(OC)c(OC)c(OC)c2)cc2c1[Si](C(C)C)(C(C)C)O[C@H]2c1ccccc1")
-0.117
>>> obs_value("CCCCN1CC=CC23O[C@@H]4/C=C\\CCCOC(=O)C4[C@H]2C(=O)N(C(CO)C(C)C)[C@@H]3C1=O (stereo partly specified)")
0.781

Now for a further compound.
Query: // lookup composite z-score | system=Carbonic anhydrase 2 (Homo sapiens) | key= `C=CCOC(=O)[C@H]1[C@@H]2C(=O)O[C@@H](c3ccccc3)[C@@H](c3ccccc3)N2[C@@H](c2ccc(OCCOC(=O)[C@H]3C[C@H]4C(=O)N[C@@H](CC(C)C)C(=O)N4[C@H]3c3ccc(O)cc3)cc2)[C@]12C(=O)Nc1ccccc12`
Reply: 0.368

----------
Assignment: determine reported z-score for the given compounds.
METHOD: JC-1 mitochondrial signal, unstimulated MM1S myeloma – cell-based, JC-1 fluorescence, 24 h, 100 nL compound, profiling panel (AID 1170)
ASSAY CONTEXT: MM1S mitochondrial potential, higher = more signal

>>> obs_value("CC(=O)NCCCC[C@@H]1NC(=O)[C@H]2C[C@@H](C(=O)NCCCCCCNC(=O)CS)[C@@H](c3cccc(OCCO)c3)N2C1=O")
-0.0983
>>> obs_value("COCCOC(=O)N1C(=O)[C@@]2(c3cc(C#CCCO)ccc31)[C@H](c1ccccc1OCCO)N1[C@H](c3ccccc3)[C@H](c3ccccc3)OC(=O)[C@H]1[C@@H]2C(N)=O")
-1.12

Record z-score per entry; entries follow.
1. CCOC(=O)C1=CCC(c2cc3ccccc3[nH]2)N(CCN2CC(C(=O)OCC)=CCC2c2cc3ccccc3[nH]2)C1 (centres undefined)
2. CN(C)c1ccc(C(O)C2C=CC3C(=O)N(Cc4ccccc4)C(=O)C3N2n2cnnc2)cc1 (centres undefined)
3. CC1=C([C@H](O)CCc2ccccc2)[C@H](CO)n2c(=O)n(-c3ccccc3)c(=O)n2C1
4. CCOC(=O)C1=CC[C@@H](c2ccc(OC)cc2)N(S(=O)(=O)c2ccc(C)cc2)[C@H]1CC

Reply:
-1.83
1.23
-1.16
-1.99

Record z-score per entry; entries follow.
1. O=C1N(CCS(=O)(=O)c2ccccc2)c2ccccc2C[C@]12N=C(c1ccc(OCCCO)cc1)O[C@@H]2c1ccccc1
2. CC(C)C(CO)N1C(=O)[C@@H]2C3C(=O)OCCC/C=C\[C@H]3OC23C=CCN(Cc2ccccc2)C(=O)[C@@H]13 (some centres undefined)
3. NC(=O)NCC#Cc1ccc2c(c1)[C@]1(C(=O)N2)[C@H](c2ccc(OCCO)cc2)N2[C@H](c3ccccc3)[C@H](c3ccccc3)OC(=O)[C@H]2[C@@H]1C(=O)NC[C@H](O)c1ccccc1
4. O=C1C2C=CC(C(O)c3cccs3)N(Nc3ccc([N+](=O)[O-])cc3)C2C(=O)N1c1ccccc1 (centres undefined)
5. C=CCN1C(=O)[C@]2(O[C@H](CCn3cc([C@H](O)c4ccccc4)nn3)[C@@H]([Si](C)(C)c3ccc(OC)cc3)[C@@H]2C)c2cc(NC(=O)c3ccc(OC)cc3)ccc21
6. C=CC[C@]1(C(=O)NCC(O)CO)COC(c2ccc(OCCCO)cc2)=N1 (some centres undefined)
7. C=C(C)[C@@H]1CC=C(C(O)C2C=CC3C(=O)N(c4ccccc4)C(=O)C3N2Nc2ccc([N+](=O)[O-])cc2)CC1 (some centres undefined)

Reply:
-0.242
0.942
0.207
-1.46
-1.39
-0.307
0.451

Query: Entry `CO[C@H]1O[C@H](CO)[C@@H](OC(=O)Nc2ccc3c(c2)OCO3)[C@H](OC(=O)Nc2ccccc2-c2ccccc2)[C@H]1OC(=O)Nc1ccccc1-c1ccccc1` : reported z-score = ?
Reply: -1.76
